These data points were gathered from paper PMC11632778.

- Test system: anti-miR-21 oligo(2′-O-methylribonucleotide)
- measurementNotes: DLS of dendriplexes with anti-miR-21 oligonucleotide
- Assay type: physicochemical
- studyConditions: CR 2.5, anti-miR-21 500 nM, 0.9% NaCl
quantity: mean diameter of dendriplex (μm)

testsmiles=CCCCCCCCCCCCCCCCCCNC(=O)c1ccc(OCCC[Si](CCCSCC(=O)NCCC[P+](c2ccccc2)(c2ccccc2)c2ccccc2)(CCCSCC(=O)NCCC[P+](c2ccccc2)(c2ccccc2)c2ccccc2)CCCSCC(=O)NCCC[P+](c2ccccc2)(c2ccccc2)c2ccccc2)cc1 scaleunit=μm result=0.5
testsmiles=CCCCCCCCCCCCCCCCCCNC(=O)c1cc(OCCC[Si](CCCSCC(=O)NCCC[P+](c2ccccc2)(c2ccccc2)c2ccccc2)(CCCSCC(=O)NCCC[P+](c2ccccc2)(c2ccccc2)c2ccccc2)CCCSCC(=O)NCCC[P+](c2ccccc2)(c2ccccc2)c2ccccc2)cc(C(=O)NCCCCCCCCCCCCCCCCCC)c1 scaleunit=μm result=0.9
testsmiles=CCCCCCCCCCCCNC(=O)c1cc(OCCC[Si](CCCSCC(=O)NCCC[P+](c2ccccc2)(c2ccccc2)c2ccccc2)(CCCSCC(=O)NCCC[P+](c2ccccc2)(c2ccccc2)c2ccccc2)CCCSCC(=O)NCCC[P+](c2ccccc2)(c2ccccc2)c2ccccc2)cc(C(=O)NCCCCCCCCCCCC)c1 scaleunit=μm result=0.8
